These entries and their values trace back to patent US6066642A.

Listing of entries alongside the reported Ki.
# measured_target: A1 receptors (Rattus norvegicus, UniProt P25099)
# Sequence (P25099 1-326): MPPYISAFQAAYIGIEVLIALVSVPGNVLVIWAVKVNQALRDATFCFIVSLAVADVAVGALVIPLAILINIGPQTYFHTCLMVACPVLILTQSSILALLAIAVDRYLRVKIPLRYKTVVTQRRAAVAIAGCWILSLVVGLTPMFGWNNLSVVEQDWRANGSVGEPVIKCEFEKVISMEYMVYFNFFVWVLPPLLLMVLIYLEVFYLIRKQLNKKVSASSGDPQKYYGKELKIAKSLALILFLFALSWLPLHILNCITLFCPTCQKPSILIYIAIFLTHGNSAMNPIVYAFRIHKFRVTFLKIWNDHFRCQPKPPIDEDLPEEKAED
# assay_method_text: biochemical
# Format: binding
# test_context: Table 15; [3H]PIA, rat brain membranes; read-out: Ki rA1

O=C(Nc1nc2ccc(Cl)cc2c2nc(-c3ccco3)nn12)c1ccccc1 ... 665 nM
CCCCC(=O)Nc1nc2ccc(Cl)cc2c2nc(-c3ccco3)nn12 ... 28.9 nM
CC(C)(C)C(=O)Nc1nc2ccc(Cl)cc2c2nc(-c3ccco3)nn12 ... 205 nM
O=C(Cc1ccccc1)Nc1nc2ccc(Cl)cc2c2nc(-c3ccco3)nn12 ... 305 nM
CC(C)(C)OC(=O)Nc1nc2ccc(Cl)cc2c2nc(-c3ccco3)nn12 ... 190 nM
CC(C)(C)OC(=O)NCCCC(=O)Nc1nc2ccc(Cl)cc2c2nc(-c3ccco3)nn12 ... 91.3 nM
CCC(=O)Nc1nc2ccc(Cl)cc2c2nc(-c3ccco3)nn12 ... 283 nM
O=c1[nH]c2ccc(Cl)cc2c2nc(-c3ccco3)nn12 ... 3000 nM

With those in mind, consider the next compound.
Dear colleague, I am looking for the recorded Ki of the following compound: `O=C(Nc1nc2ccc(Cl)cc2c2nc(-c3ccc(Br)o3)nn12)c1ccccc1`
> 1000 nM
